System: 317291-083-R-J1-PDC complex spheroid growth;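 note: compound exposure lasted seven days after spheroids formed for three days; 100% = DMSO vehicle control wells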
Assay: Anticancer human tumor 317291-083-R-J1-PDC patient-derived soft tissue sarcoma cell line growth inhibition [Asc]
Conditions: second compound 0.03 µM; first compound 0.1 µM; hits give low values
Excerpt: Multicellular complex tumor spheroid response to apoptosis pathway targeting inhibitors Alrizomadlin, Pelcitoclax, and Dasminapant in combination with a variety of drugs and investigational agents in selected tumor cell lines […] Compounds. […] If the clinical Cmax for an agent had not been determined, the highest concentration tested was 10 microM. […]
I'd be grateful if you could share measured viability, T/C for these entries.
Numbers only, in %.

Worked cases, answers included:
NC1CCC(NC2CC2c2ccccc2)CC1 (stereo not given) + CCN1C(C(=O)NC23CCC(C(=O)O)(CC2)CC3)C(c2cccc(Cl)c2F)C2(C(=O)Nc3cc(Cl)ccc32)C12CCCCC2 ... 94.2
O=C(c1ccc(F)c(F)c1Nc1ccc(I)cc1F)N1CC(O)([C@@H]2CCCCN2)C1 + CCN1C(C(=O)NC23CCC(C(=O)O)(CC2)CC3)C(c2cccc(Cl)c2F)C2(C(=O)Nc3cc(Cl)ccc32)C12CCCCC2 ... 117
C=CC(=O)N1CCN(c2nc(=O)n(-c3c(C)ccnc3C(C)C)c3nc(-c4c(O)cccc4F)c(F)cc23)C(C)C1 (stereo not given) + CCN1C(C(=O)NC23CCC(C(=O)O)(CC2)CC3)C(c2cccc(Cl)c2F)C2(C(=O)Nc3cc(Cl)ccc32)C12CCCCC2 ... 80.2

// for each compound below, give its viability, T/C
1. CCN1CCN(Cc2ccc(Nc3ncc(F)c(-c4cc(F)c5nc(C)n(C(C)C)c5c4)n3)nc2)CC1 + CCN1C(C(=O)NC23CCC(C(=O)O)(CC2)CC3)C(c2cccc(Cl)c2F)C2(C(=O)Nc3cc(Cl)ccc32)C12CCCCC2
2. C=C(F)C(=O)N1CCN(c2nc(OCC3CCCN3C)nc3c2CCN(c2cccc4cccc(Cl)c24)C3)CC1CC#N (stereo not given) + CCN1C(C(=O)NC23CCC(C(=O)O)(CC2)CC3)C(c2cccc(Cl)c2F)C2(C(=O)Nc3cc(Cl)ccc32)C12CCCCC2
3. C#Cc1c(F)ccc2cc(O)cc(-c3ncc4c(N5CC6CCC(C5)N6)nc(OCC56CCCN5CC(F)C6)nc4c3F)c12 (stereo not given) + CCN1C(C(=O)NC23CCC(C(=O)O)(CC2)CC3)C(c2cccc(Cl)c2F)C2(C(=O)Nc3cc(Cl)ccc32)C12CCCCC2
4. O=C(c1cc(Cc2n[nH]c(=O)c3ccccc23)ccc1F)N1CCN(C(=O)C2CC2)CC1 + CCN1C(C(=O)NC23CCC(C(=O)O)(CC2)CC3)C(c2cccc(Cl)c2F)C2(C(=O)Nc3cc(Cl)ccc32)C12CCCCC2
5. CNC(C)C(=O)NC1CN(S(=O)(=O)c2cccc(S(=O)(=O)N3CCC4CCC(C(=O)NC(c5ccccc5)c5ccccc5)N4C(=O)C(NC(=O)C(C)NC)C3)c2)CCC2CCC(C(=O)NC(c3ccccc3)c3ccccc3)N2C1=O (stereo not given) + CCN1C(C(=O)NC23CCC(C(=O)O)(CC2)CC3)C(c2cccc(Cl)c2F)C2(C(=O)Nc3cc(Cl)ccc32)C12CCCCC2
6. Cn1ncnc1[C@H]1c2n[nH]c(=O)c3cc(F)cc(c23)N[C@@H]1c1ccc(F)cc1 + CCN1C(C(=O)NC23CCC(C(=O)O)(CC2)CC3)C(c2cccc(Cl)c2F)C2(C(=O)Nc3cc(Cl)ccc32)C12CCCCC2
7. COc1c(OCCCN2CCOCC2)ccc2c3n(c(=NC(=O)c4cnc(N)nc4)nc12)CCN3 + CCN1C(C(=O)NC23CCC(C(=O)O)(CC2)CC3)C(c2cccc(Cl)c2F)C2(C(=O)Nc3cc(Cl)ccc32)C12CCCCC2

1. 103
2. 91.8
3. 98.3
4. 101
5. 65.2
6. 87.3
7. 56.2

Reference source for all entries: PubChem BioAssay AID1963427
